Measured values drawn from patent US9981964B2 for this set.

- Tested on: HEK293-STF3A cells
- test-description: STF3A assay (STF luciferase reporter in Wnt3A-expressing HEK293 cells)
- Assay type: cell-based
- measurement-context: Homo sapiens, 24 h, 1 day of treatment
Give IC50 for every item shown.

Please report the recorded IC50 for `CN1C(=O)C2=C(C1=O)N(CC(=O)Nc1cnc(-c3ccncc3)cn1)CCC2` .
> 10 µM

For the compound shown here, `CN1C(=O)C2=C(C1=O)N(CC(=O)Nc1ccc(-c3ncccn3)cc1)CCC2` , give the reported IC50.
< 1 µM

Looking for the measured IC50 of `Cc1cc(-c2cccnc2)ncc1NC(=O)CN1CCCC2=C1C(=O)N(C1CC1)C2=O` , can you help?
< 10 µM

* * *

- Test system: HEK293-STF3A cells
- test-description: STF3A assay (STF luciferase reporter in Wnt3A-expressing HEK293 cells)
- Assay type: cell-based
- measurement-context: Homo sapiens, 24 h, 1 day of treatment
outcome-measure: IC50

Given `Cc1ccc(-c2ccc(NC(=O)CN3CCCC4=C3C(=O)N(C)C4=O)cn2)cn1` , state its recorded IC50.
< 0.1 µM

Given the entry `O=C(CN1CCCC2=C1C(=O)N(C1CC1)C2=O)Nc1ccc(-c2cncc(F)c2)nn1` , report its measured IC50.
< 0.1 µM

Name the recorded IC50 for CC(C(=O)Nc1ccc(-c2ccc(F)nc2)cn1)N1CCCC2=C1C(=O)N(C)C2=O (centres unmarked) .
< 1 µM

// lookup IC50 for `O=C(CN1CCCC2=C1C(=O)N(C1CC1)C2=O)Nc1cc(F)c(-c2cccnc2)cn1`
< 0.1 µM

What value of IC50 has been recorded for this entry: `O=C(CN1CCCC2=C1C(=O)N(C1CC1)C2=O)Nc1ccc(-c2ccccc2)cc1`
< 0.1 µM

Any idea what its IC50 is? The compound is `Cc1ncccc1-c1ccc(NC(=O)CN2CCCC3=C2C(=O)N(C)C3=O)nn1`
< 5 µM

Sample `Cc1cncc(-c2ccc(NC(=O)CN3CCCC4=C3C(=O)N(C3CC3)C4=O)nn2)c1` — what was its IC50?
< 0.1 µM

What does the record list as IC50 for `CN1C(=O)C2=C(C1=O)N(CC(=O)Nc1ccc(-c3ccc(F)nc3)nn1)CCC2` ?
< 0.1 µM

So what's the measured IC50 for this one? `O=C(CN1CCCC2=C1C(=O)N(C1CC1)C2=O)Nc1ccc(-c2ccc(F)nc2)nc1`
< 0.1 µM

Given the compound `Cc1cccc(-c2ccc(NC(=O)CN3CCCC4=C3C(=O)N(C)C4=O)cn2)c1` , what is its reported IC50?
< 0.1 µM

Need IC50 of `CN1C(=O)C2=C(C1=O)N(CC(=O)Nc1ccc(-c3ccccc3)cn1)CCC2` , thanks.
< 0.1 µM

Which IC50 reading was recorded for the compound `O=C(CN1CCCC2=C1C(=O)N(C1CC1)C2=O)Nc1ncc(-c2cccnc2)cc1F` ?
< 1 µM

Which IC50 is listed for CC(C(=O)Nc1ccc(-c2cncc(F)c2)cn1)N1CCCC2=C1C(=O)N(C)C2=O (centres unmarked) ?
< 0.1 µM

So what does the record say about IC50 for `O=C(CN1CCCC2=C1C(=O)N(C1CC1)C2=O)Nc1ccc(-c2ccc(F)nc2)cn1` ?
< 0.1 µM

Query: IC50; subject: `CN1C(=O)C2=C(C1=O)N(CC(=O)Nc1ccc(-c3ccccc3)nn1)CCC2`
< 0.1 µM

Entry under review: `CN1C(=O)C2=C(C1=O)N(CC(=O)Nc1cnc(-c3cccnc3)cn1)CCC2` . Reported IC50?
< 0.1 µM

Given the entry `CN1C(=O)C2=C(C1=O)N(CC(=O)Nc1ccc(-c3cncnc3)cc1)CCC2` , report its measured IC50.
< 0.1 µM

Consider the compound CC(C(=O)Nc1ccc(-c2ccccc2)nn1)N1CCCC2=C1C(=O)N(C)C2=O (centres unmarked) and give its measured IC50.
< 0.1 µM

Find the recorded IC50 belonging to `O=C(CN1CCCC2=C1C(=O)N(C1CC1)C2=O)Nc1ccc(-c2ccc(OC(F)(F)F)cc2)nn1` and report it.
< 1 µM

What value of IC50 has been reported for the following compound? `CN1C(=O)C2=C(C1=O)N(CC(=O)Nc1ccc(-c3ccc(F)nc3)nc1)CCC2`
< 1 µM

Entry under review: `Cc1ncccc1-c1ccc(NC(=O)CN2CCCC3=C2C(=O)N(C2CC2)C3=O)cn1` . Reported IC50?
< 0.1 µM

For the compound shown here, CC(C(=O)Nc1cc(-c2cccc(Cl)c2)no1)N1CCCC2=C1C(=O)N(C)C2=O (centres unmarked) , give the reported IC50.
< 5 µM

Value lookup for IC50; key = `O=C(CN1CCCC2=C1C(=O)N(C1CC1)C2=O)Nc1ccc(-c2cccc(OC(F)(F)F)c2)nn1`
< 1 µM

IC50 for `Cc1nc(NC(=O)CN2CCCC3=C2C(=O)N(C2CC2)C3=O)ccc1-c1cccnc1` ?
< 1 µM

I have this compound here, C[C@@H](C(=O)Nc1ccc(-c2cccnc2)cn1)N1CCCC2=C1C(=O)N(C)C2=O (single isomer, unassigned) , and I need its recorded IC50.
< 0.1 µM

Need IC50 of `O=C(CN1CCCC2=C1C(=O)N(C1CC1)C2=O)Nc1ccc(-c2cccnc2)cn1` , thanks.
< 0.1 µM

Fill blank: measured IC50 of the compound `CN1C(=O)C2=C(C1=O)N(CC(=O)Nc1ccc(-c3ccccn3)cn1)CCC2` is ____.
< 0.1 µM

Which measured IC50 value corresponds to `Cc1cncc(-c2ccc(NC(=O)CN3CCCC4=C3C(=O)N(C)C4=O)nc2)n1` ?
< 0.1 µM

Using the record for `O=C(CN1CCCC2=C1C(=O)N(C1CC1)C2=O)Nc1ccc(-c2ccccn2)cn1` , report its IC50.
< 0.1 µM

Please give the measured IC50 for this compound: `CN1C(=O)c2c(n(CC(=O)Nc3ccc(-c4cccnc4)nn3)ccc2=O)C1=O`
< 1 µM

Record request: IC50 value, item C[C@H](C(=O)Nc1ccc(-c2ccccc2)nn1)N1CCCC2=C1C(=O)N(C)C2=O (single isomer, unassigned)
> 10 µM

Item under review: `O=C(CN1CCCC2=C1C(=O)N(C1CC1)C2=O)Nc1ccc(-c2cccnc2)nc1F` . Reported IC50?
< 0.1 µM

* * *

- Test system: HPAF-II cells
- test-description: Soft agar colony formation assay, HPAF-II
- Assay type: cell-based
- measurement-context: Homo sapiens, 336 h, 50% colony growth inhibition, 2 weeks, read-out: Test 1 IC50
outcome-measure: pIC50
Kindly note that pIC50 refers to -log10 of the concentration in mol/L and answer with the value alone.

Fill blank: measured pIC50 of the molecule O=C(CN1CCCC2=C1C(=O)N(C1CC1)C2=O)Nc1ccc(-c2cccnc2)nn1 [Compound 43] is ____.
8.40

* * *

- Tested on: HEK293-STF3A cells
- test-description: STF3A assay (STF luciferase reporter in Wnt3A-expressing HEK293 cells)
- Type: cell-based
- measurement-context: Homo sapiens, 24 h, 1 day of treatment
outcome-measure: IC50

IC50 of O=C(CN1CCCC2=C1C(=O)N(C1CC1)C2=O)Nc1ccc(-c2cncnc2)nc1 [Compound 102] on HEK293-STF3A cells?
< 0.1 µM

// lookup IC50 | system=HEK293-STF3A cells | key= O=C(CN1CCCC2=C1C(=O)N(C1CC1)C2=O)Nc1ccc(-c2cccnc2F)nc1 [Compound 135]
< 0.1 µM

Quick check: IC50 on HEK293-STF3A cells, item COc1ccccc1-c1ccc(NC(=O)CN2CCCC3=C2C(=O)N(C)C3=O)nn1 [Compound 28] ?
> 10 µM

Query for HEK293-STF3A cells: what IC50 does the record show for CN1C(=O)C2=C(C1=O)N(CC(=O)Nc1ccc(-c3ccc(C(F)(F)F)cc3)nn1)CCC2 [Compound 49] ?
< 10 µM

* * *

- Tested on: HEK293-STF3A cells
- test-description: STF3A assay (STF luciferase reporter in Wnt3A-expressing HEK293 cells)
- Type: cell-based
- measurement-context: Homo sapiens, 24 h, 1 day of treatment
pIC50: −log10 of the molar value.
outcome-measure: pIC50

Can you share its pIC50? I mean this molecule: `CN1C(=O)C2=C(C1=O)N(CC(=O)Nc1ccc(-c3cncnc3)cn1)CCC2`
> 7.00

// pIC50 lookup, key: `CN1C(=O)C2=C(C1=O)N(CC(=O)Nc1ccc(-c3ccc(F)cc3)nn1)CCC2`
> 7.00

Quick one: pIC50 for `Cc1ccncc1-c1ccc(NC(=O)CN2CCCC3=C2C(=O)N(C2CC2)C3=O)cn1` ?
> 6.00

Find the recorded pIC50 belonging to `O=C(CN1CCCC2=C1C(=O)N(C1CC1)C2=O)Nc1ccc(-c2cncc(C(F)(F)F)c2)nn1` and report it.
> 7.00

* * *

For each record, write down the corresponding pIC50.
- Tested on: HEK293-STF3A cells
- test-description: STF3A assay (STF luciferase reporter in Wnt3A-expressing HEK293 cells)
- Format: cell-based
- measurement-context: Homo sapiens, 24 h, 1 day of treatment
pIC50: −log10 of the molar value.

Would you kindly share the measured pIC50 for O=C(CN1CCCC2=C1C(=O)N(C1CC1)C2=O)Nc1ccc(-c2cc(F)ccn2)cn1 [Compound 156] ?
> 7.00

Requested field: pIC50. Item: Cc1nc(-c2cccnc2)ccc1NC(=O)CN1CCCC2=C1C(=O)N(C1CC1)C2=O [Compound 123]
< 5.00

I would be grateful if you could share the reported pIC50 for Cc1ccc(-c2ccc(NC(=O)CN3CCCC4=C3C(=O)N(C)C4=O)nn2)cc1 [Compound 30] .
> 7.00

What value of pIC50 has been reported for the following compound? Cc1cncc(-c2ncc(NC(=O)CN3CCCC4=C3C(=O)N(C3CC3)C4=O)cc2C)c1 [Compound 68]
> 7.00

Query (compound): Cc1ccccc1-c1ccc(NC(=O)CN2CCCC3=C2C(=O)N(C)C3=O)nn1 [Compound 27] ; field requested: pIC50
> 6.00

What value of measured pIC50 is listed for Cc1nc(NC(=O)CN2CCCC3=C2C(=O)N(C)C3=O)ccc1-c1cccnc1 [Compound 112] ?
> 5.00

Quick check: pIC50 of Cc1ccc(-c2ccc(NC(=O)CN3CCCC4=C3C(=O)N(C3CC3)C4=O)cn2)cn1 [Compound 44] ?
> 7.00

// pIC50 lookup, key: CN1C(=O)C2=C(C1=O)N(CC(=O)Nc1ccc(-c3cncc(F)c3)cn1)CCC2 [Compound 143]
> 7.00

Recorded pIC50 for CN1C(=O)C2=C(C1=O)N(CC(=O)Nc1ccc(-c3cccnc3)cc1)CCC2 [Compound 77] , please?
> 7.00

pIC50 lookup needed for O=C(CN1CCCC2=C1C(=O)N(C1CC1)C2=O)Nc1ccc(-c2cncc(C(F)F)c2)nn1 [Compound 61] , thanks.
> 7.00

State the recorded pIC50 for this entry: Cc1ccc(-c2ccc(NC(=O)CN3CCCC4=C3C(=O)N(C)C4=O)nc2)cn1 [Compound 39]
> 7.00

May I ask what pIC50 has been recorded for CN1C(=O)C2=C(C1=O)N(CC(=O)Nc1cnc(-c3cncc(F)c3)cn1)CCC2 [Compound 141] ?
> 7.00

For the compound COc1ccc(-c2ccc(NC(=O)CN3CCCC4=C3C(=O)N(C)C4=O)nn2)cc1 [Compound 31] , what pIC50 is on record?
> 7.00

Requested read-out: pIC50. Entry: CN1C(=O)C2=C(C1=O)N(CC(=O)Nc1ccc(-c3ccccc3)nc1)CCC2 [Compound 37]
> 7.00

What pIC50 value was documented for this compound, Cc1cc(-c2ccccc2)ccc1NC(=O)CN1CCCC2=C1C(=O)N(C)C2=O [Compound 78] ?
< 5.00

Any idea what pIC50 was measured for Cc1ccc(-c2ccc(NC(=O)CN3CCCC4=C3C(=O)N(C3CC3)C4=O)nc2)nc1 [Compound 146] ?
> 6.00

Suppose we examine the compound C[C@H](C(=O)Nc1ccc(-c2cccnc2)cn1)N1CCCC2=C1C(=O)N(C)C2=O (single isomer, unassigned) [Compound 93] ; what pIC50 value has been reported?
> 6.00

Please look up its pIC50: CC(C(=O)Nc1ccc(-c2cccnc2F)cn1)N1CCCC2=C1C(=O)N(C)C2=O (centres unmarked) [Compound 97]
> 7.00

# pIC50 lookup, item COc1cccc(-c2ccc(NC(=O)CN3CCCC4=C3C(=O)N(C)C4=O)nn2)c1 [Compound 32]
> 7.00

Could you share which pIC50 value was measured for CN1C(=O)C2=C(C1=O)N(CC(=O)Nc1ccc(-c3cccnc3)nn1)CCC2 [Compound 25] ?
> 7.00

Sample O=C(CN1CCCC2=C1C(=O)N(C1CC1)C2=O)Nc1ccc(-c2cncnc2)cc1 [Compound 90] — what was its pIC50?
> 7.00

pIC50 for Cc1cncc(-c2ccc(NC(=O)CN3CCCC4=C3C(=O)N(C)C4=O)nc2)c1 [Compound 148] ?
> 7.00

Give the measured pIC50 of Cc1ccc(-c2ccc(NC(=O)CN3CCCC4=C3C(=O)N(C)C4=O)cn2)cc1 [Compound 158] .
> 7.00

Any idea what pIC50 was measured for Cc1cncc(-c2ccc(NC(=O)CN3CCCC4=C3C(=O)N(C)C4=O)cn2)c1 [Compound 149] ?
> 7.00

# lookup: pIC50 of O=C(CN1CCCC2=C1C(=O)N(C1CC1)C2=O)Nc1ccc(-c2cncc(Cl)c2)nn1 [Compound 58]
> 7.00

Entry O=C(CN1CCCC2=C1C(=O)N(C1CC1)C2=O)Nc1ccc(-c2cncc(F)c2)nc1 [Compound 87] has what pIC50?
> 7.00

Any idea what its pIC50 is? The compound is O=C(CN1CCCC2=C1C(=O)N(C1CCC1)C2=O)Nc1ccc(-c2ccccc2)nn1 [Compound 38]
> 7.00

Need pIC50, item COc1ccc(-c2ccc(NC(=O)CN3CCCC4=C3C(=O)N(C3CC3)C4=O)cn2)cn1 [Compound 145]
> 7.00

May I ask what pIC50 has been recorded for Cc1cccc(-c2ccc(NC(=O)CN3CCCC4=C3C(=O)N(C)C4=O)nc2)n1 [Compound 34] ?
> 7.00

Quick one: pIC50 for COc1cc(NC(=O)CN2CCCC3=C2C(=O)N(C)C3=O)ccc1-c1ccccc1 [Compound 99] ?
> 5.00

Consider the compound shown here: Cc1cc(NC(=O)CN2CCCC3=C2C(=O)N(C2CC2)C3=O)ncc1-c1cccnc1 [Compound 120] What is its recorded pIC50?
> 6.00

Look up pIC50: COc1cncc(-c2ccc(NC(=O)CN3CCCC4=C3C(=O)N(C3CC3)C4=O)cn2)c1 [Compound 144]
> 7.00
